- System: Pseudomonas fluorescens (PSFL)
- experiment.description: Minimum inhibitory concentration (MIC), broth two-fold serial dilution test
- cond: Pseudomonas fluorescens, read-out: MIC (G-) PSFL, M9G (minimal salts media with glucose); Table IIIc, iodopropargyl esters of peptides
Where a name gives a salt, the structure may show the parent alone.
# maps each entry to its MIC

Here's what some known entries look like.
{"compound": "C[C@H](NC(=O)OC(C)(C)C)C(=O)N[C@@H](CSCc1ccccc1)C(=O)OCC#CI", "measured.on": "Pseudomonas fluorescens (PSFL)", "MIC": "> 100 µg/mL"}
{"compound": "C[C@H](NC(=O)OC(C)(C)C)C(=O)N[C@@H](COCc1ccccc1)C(=O)OCC#CI", "measured.on": "Pseudomonas fluorescens (PSFL)", "MIC": "100 µg/mL"}
{"compound": "C[C@H](N)C(=O)N[C@@H](COCc1ccccc1)C(=O)OCC#CI [Compound 19, trifluoroacetate]", "measured.on": "Pseudomonas fluorescens (PSFL)", "MIC": "50 µg/mL"}
{"compound": "C[C@H](NC(=O)OC(C)(C)C)C(=O)N[C@@H](C)C(=O)OCC#CI", "measured.on": "Pseudomonas fluorescens (PSFL)", "MIC": "50 µg/mL"}
{"compound": "C[C@H](N)C(=O)NCC(=O)OCC#CI [Compound 17, trifluoroacetate]", "measured.on": "Pseudomonas fluorescens (PSFL)", "MIC": "100 µg/mL"}

Fill in the blank: the reported MIC of `C[C@H](NC(=O)CNC(=O)OC(C)(C)C)C(=O)OCC#CI` is ____.
125 µg/mL

Fill in the blank: the reported MIC of C[C@H](N)C(=O)N[C@@H](CSCc1ccccc1)C(=O)OCC#CI [Compound 20, trifluoroacetate] is ____.
100 µg/mL

====

# maps each entry to its inhibition of growth at 6 ppm
- System: Phytophthora capsici (PHY)
- experiment.description: In-vitro plant fungicide test
- Assay type: cell-based
- cond: Phytophthora capsici; 6 ppm; Table IVb; read-out: % Control at (ppm) indicated PHY
Counter-ions that a name gives are not always drawn.
Respond numerically; units are % and should not be typed.

{"molecule": "CC(C)(C)OC(=O)NCC(=O)OCC#CI", "measured.on": "Phytophthora capsici (PHY)", "property.measured": "inhibition of growth at 6 ppm", "unit.abbrev": "%", "numeric.result": 100}
{"molecule": "CC(=O)NCC(=O)OCC#CI", "measured.on": "Phytophthora capsici (PHY)", "property.measured": "inhibition of growth at 6 ppm", "unit.abbrev": "%", "numeric.result": 100}
{"molecule": "O=C(CN1C(=O)c2ccccc2C1=O)OCC#CI", "measured.on": "Phytophthora capsici (PHY)", "property.measured": "inhibition of growth at 6 ppm", "unit.abbrev": "%", "numeric.result": 100}

Fill in the blank: the reported inhibition of growth at 6 ppm of C[C@H](N)C(=O)N[C@@H](COCc1ccccc1)C(=O)OCC#CI [Compound 19, trifluoroacetate] is ____.
0

====

- System: ALT
- experiment.description: In-vitro plant fungicide test
- Format: cell-based
- cond: 6 ppm; Table IVb; read-out: % Control at (ppm) indicated ALT
Structures can show the parent of a compound that is named as a salt.
property.measured: inhibition of growth at 6 ppm

{"molecule": "CC(=O)NCC(=O)OCC#CI [Compound 28, N-acetylglycine iodopropargyl ester]", "inhibition of growth at 6 ppm": "75%"}
{"molecule": "C[C@H](N)C(=O)N[C@@H](COCc1ccccc1)C(=O)OCC#CI [Compound 19, trifluoroacetate]", "inhibition of growth at 6 ppm": "75%"}
{"molecule": "O=C(CN1C(=O)c2ccccc2C1=O)OCC#CI [Compound 30, N-phthaloylglycine iodopropargyl ester]", "inhibition of growth at 6 ppm": "90%"}

Below: the item to evaluate.
Fill in the blank: the reported inhibition of growth at 6 ppm of CC(C)(C)OC(=O)NCC(=O)OCC#CI [Compound 1] is ____.
50%

====

- Test system: Botrytis cinerea (BOC)
- experiment.description: In-vitro plant fungicide test
- Type: cell-based
- cond: Botrytis cinerea, 25 ppm; Table IVa; *=Phytotoxic; read-out: % Control at 25 ppm BOC
Structures can show the parent of a compound that is named as a salt.
# maps each entry to its inhibition of growth at 25 ppm
Respond numerically; units are % and should not be typed.

Here's what some known entries look like.
{"molecule": "C[C@H](NC(=O)OC(C)(C)C)C(=O)NCC(=O)OCC#CI", "numeric.result": 0}
{"molecule": "N[C@@H](CSCc1ccccc1)C(=O)OCC#CI [Compound 10, trifluoroacetate]", "numeric.result": 0}

Below: the item to evaluate.
Fill in the blank: the reported inhibition of growth at 25 ppm of NCC(=O)OCC#CI [Compound 7, trifluoroacetate] is ____.
100

====

- Tested on: Fusarium roseum (FUS)
- experiment.description: In-vitro plant fungicide test
- Assay type: cell-based
- cond: Fusarium sambucinum, read-out: % Control at (ppm) indicated FUS, 25 ppm; Table IVb
Where a name gives a salt, the structure may show the parent alone.
property.measured: inhibition of growth at 25 ppm (%)
Respond numerically; units are % and should not be typed.

Here's what some known entries look like.
{"compound": "C[C@H](N)C(=O)N[C@@H](COCc1ccccc1)C(=O)OCC#CI [Compound 19, trifluoroacetate]", "inhibition of growth at 25 ppm, %": 0}
{"compound": "CC(=O)NCC(=O)OCC#CI", "inhibition of growth at 25 ppm, %": 100}
{"compound": "O=C(CN1C(=O)c2ccccc2C1=O)OCC#CI", "inhibition of growth at 25 ppm, %": 100}

Below: the item to evaluate.
Could you share what inhibition of growth at 25 ppm was measured for `CC(C)(C)OC(=O)NCC(=O)OCC#CI` , tested on Fusarium roseum (FUS)?
100

====

# maps each entry to its inhibition of growth at 3 ppm
- System: COL
- experiment.description: In-vitro plant fungicide test
- Assay type: cell-based
- cond: 3 ppm; Table IVb; read-out: % Control at (ppm) indicated COL
Where a name gives a salt, the structure may show the parent alone.

Here's what some known entries look like.
{"molecule": "O=C(CN1C(=O)c2ccccc2C1=O)OCC#CI", "measured.on": "COL", "result": "0%"}
{"molecule": "CC(=O)NCC(=O)OCC#CI", "measured.on": "COL", "result": "0%"}
{"molecule": "C[C@H](N)C(=O)N[C@@H](COCc1ccccc1)C(=O)OCC#CI [Compound 19, trifluoroacetate]", "measured.on": "COL", "result": "0%"}

Fill in the blank: the reported inhibition of growth at 3 ppm of `CC(C)(C)OC(=O)NCC(=O)OCC#CI` is ____.
0%

====

- Tested on: 8 FUNGI
- experiment.description: Microbicides secondary test against 8 fungi on Mycophile Agar at pH 5.0 (Table VI)
- Type: cell-based
- Set-up: key: 1= no growth; 0= growth of the indicated fungi at dose indicated in ppm
- cond: Penicillium funiculosum, 0.2 PPM
# maps each entry to its PFUN growth

Here's what some known entries look like.
{"compound.string": "CCCCCCCC(=O)NCC(=O)OCC#CI", "measured.on": "8 FUNGI", "property.measured": "PFUN growth", "result": 0}
{"compound.string": "O=C(CNC(=O)c1ccccc1)OCC#CI", "measured.on": "8 FUNGI", "property.measured": "PFUN growth", "result": 0}

Below: the item to evaluate.
Fill in the blank: the reported PFUN growth of `O=C(CN1C(=O)c2ccccc2C1=O)OCC#CI` is ____.
0

====

- System: Escherichia coli (ECOL)
- experiment.description: Minimum inhibitory concentration (MIC), broth two-fold serial dilution test
- cond: Escherichia coli, read-out: MIC (G-) ECOL, M9G (minimal salts media with glucose); Table IIIa
Counter-ions that a name gives are not always drawn.
# maps each entry to its MIC
Respond numerically; units are µg/mL and should not be typed.

{"compound": "NCC(=O)OCC#CI [Compound 7, trifluoroacetate]", "property.measured": "MIC", "unit.abbrev": "µg/mL", "numeric.result": 100}
{"compound": "C[C@@H](N)C(=O)OCC#CI [Compound 24, trifluoroacetate]", "property.measured": "MIC", "unit.abbrev": "µg/mL", "numeric.result": 32}

Fill in the blank: the reported MIC of C[C@H](N)C(=O)OCC#CI [Compound 8, trifluoroacetate] is ____.
64

====

- Test system: 8 FUNGI
- experiment.description: Microbicides secondary test against 8 fungi on Mycophile Agar at pH 5.0 (Table VI)
- Format: cell-based
- Design: key: 1= no growth; 0= growth of the indicated fungi at dose indicated in ppm
- cond: Chaetomium globosum, 1.0 PPM
# maps each entry to its CGLO growth

Here's what some known entries look like.
{"compound.string": "CCCCCCCC(=O)NCC(=O)OCC#CI", "measured.on": "8 FUNGI", "CGLO growth": 1}
{"compound.string": "O=C(CNC(=O)OCc1ccccc1)OCC#CI", "measured.on": "8 FUNGI", "CGLO growth": 0}

Fill in the blank: the reported CGLO growth of `C/C=C/C=C/C(=O)NCC(=O)OCC#CI` is ____.
1

Reference source: patent EP0414533A1
